# SUBJECT_OF_TEST: Epidermal growth factor receptor (Homo sapiens)
# Sequence (P00533 whole entry): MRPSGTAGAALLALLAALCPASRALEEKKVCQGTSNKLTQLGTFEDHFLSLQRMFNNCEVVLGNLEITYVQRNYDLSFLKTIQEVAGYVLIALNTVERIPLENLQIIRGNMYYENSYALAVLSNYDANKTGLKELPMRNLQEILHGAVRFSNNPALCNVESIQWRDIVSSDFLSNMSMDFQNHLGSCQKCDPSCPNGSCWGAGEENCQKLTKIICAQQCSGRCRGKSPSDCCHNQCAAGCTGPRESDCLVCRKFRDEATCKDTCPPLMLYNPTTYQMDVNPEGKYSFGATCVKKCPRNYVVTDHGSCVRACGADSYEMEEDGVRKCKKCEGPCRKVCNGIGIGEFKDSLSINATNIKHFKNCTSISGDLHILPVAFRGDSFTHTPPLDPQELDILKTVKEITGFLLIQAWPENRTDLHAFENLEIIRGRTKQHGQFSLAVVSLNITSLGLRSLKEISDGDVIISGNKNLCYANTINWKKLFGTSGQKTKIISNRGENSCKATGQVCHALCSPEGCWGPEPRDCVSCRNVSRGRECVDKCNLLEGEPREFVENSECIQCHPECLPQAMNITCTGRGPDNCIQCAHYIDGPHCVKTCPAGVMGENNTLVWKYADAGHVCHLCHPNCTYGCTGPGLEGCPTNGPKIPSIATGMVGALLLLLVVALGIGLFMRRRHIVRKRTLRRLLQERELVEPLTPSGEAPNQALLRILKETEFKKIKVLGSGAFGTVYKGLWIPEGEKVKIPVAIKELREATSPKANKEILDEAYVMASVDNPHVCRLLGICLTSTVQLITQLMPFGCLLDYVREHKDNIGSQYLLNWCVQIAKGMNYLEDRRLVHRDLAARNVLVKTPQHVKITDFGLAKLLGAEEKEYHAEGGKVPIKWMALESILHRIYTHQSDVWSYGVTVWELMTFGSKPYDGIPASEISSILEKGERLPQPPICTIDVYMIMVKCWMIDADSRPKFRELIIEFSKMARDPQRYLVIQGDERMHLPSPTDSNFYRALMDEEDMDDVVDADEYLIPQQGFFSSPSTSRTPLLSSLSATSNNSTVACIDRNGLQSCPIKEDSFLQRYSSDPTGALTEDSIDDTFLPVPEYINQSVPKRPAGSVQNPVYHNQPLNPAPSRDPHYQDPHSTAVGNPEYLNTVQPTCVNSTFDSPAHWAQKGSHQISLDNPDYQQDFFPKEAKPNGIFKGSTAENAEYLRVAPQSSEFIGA
# ASSAY: Inhibition of human recombinant EGFR using Ulight-CAGAGAIETDKEYYTVKD as substrate after 15 mins by time-resolved fluorimetric analysis
Please assign a class to every record based on measured IC50, with ranges small value (below 0.3 nM), mid value (0.3 nM to below 20 nM), large value (20 nM or more)

Please review the entries below; each comes with its answer.
INSERT INTO measurements (smiles_text, qualitative_label) VALUES
  ('O=C(CCN1CCOCC1)Nc1ccc2ncnc(Nc3cccc(Br)c3)c2c1', 'mid value'),
  ('CCOc1cc2ncc(C#N)c(Nc3ccc(OCc4ccccn4)c(Cl)c3)c2cc1NC(=O)CCN1CCOCC1', 'large value'),
  ('CCOc1cc2ncc(C#N)c(Nc3ccc(OCc4ccccn4)c(Cl)c3)c2cc1NC(=O)CCN(C)C', 'mid value');

Proceed to the following item.
Task item: Hello team, could you let me know which band the following compound falls into: `CCOc1cc2ncc(C#N)c(Nc3ccc(F)c(Cl)c3)c2cc1NC(=O)CCN(C)C`
Reply: mid value

###

# Ratio IC50 per record follows
# System: NCI-H1975
# ASSAY: Ratio of gefitinib IC50 to compound IC50 for human NCI-H1975 cells
# Type: functional
Would you mind answering with just the numeric figure?

Examples with answers:
INSERT INTO assay_data (smiles_text, result_value) VALUES
  ('CCOc1cc2ncc(C#N)c(Nc3ccc(OCc4ccccn4)c(Cl)c3)c2cc1NC(=O)CCN1CCCCC1', 11),
  ('CCOc1cc2ncnc(Nc3ccc(F)c(Cl)c3)c2cc1NC(=O)CCN1CCOCC1', 3),
  ('CCOc1cc2ncnc(Nc3ccc(F)c(Cl)c3)c2cc1NC(=O)CCN1CCCCC1', 3);

Now for the compound whose Ratio IC50 we want.
Task item: Fill: Ratio IC50 (NCI-H1975) for this compound `CCOc1cc2ncnc(Nc3ccc(F)c(Cl)c3)c2cc1NC(=O)CCN(C)C`
Reply: 3

###

# remaining at 24 h, 1 µM per record follows
# ASSAY: Chemical stability of the compound in 0.01 M PBS buffer assessed as compound remaining at 1 uM after 24 hrs at pH 7.4
# Assay type: physicochemical
# MEASUREMENT_CONDITIONS: read-out: Stability
Form entry: value (%) — number only.

INSERT INTO results (smiles_text, result_value) VALUES
  ('C=CC(=O)Nc1ccc2ncnc(Nc3cccc(Br)c3)c2c1', 102);

Now for the compound whose remaining at 24 h, 1 µM we want.
Task item: Give a short answer stating reported remaining at 24 h, 1 µM for `CN(C)CCC(=O)Nc1ccc2ncnc(Nc3cccc(Br)c3)c2c1` .
Reply: 97.5

###

# SUBJECT_OF_TEST: UniProtKB P00533
# MEASUREMENT_CONDITIONS: A549, at 1 µM
QUANTITY_NAME: inhibition (%)
Form entry: value (%) — number only.

Task item: Give a short answer stating reported inhibition for `CCOc1cc2ncc(C#N)c(Nc3ccc(OCc4ccccn4)c(Cl)c3)c2cc1NC(=O)CCN(C)C` .
Reply: 59

Task item: Give a short answer stating reported inhibition for `CCOc1cc2ncc(C#N)c(Nc3ccc(F)c(Cl)c3)c2cc1NC(=O)CCN1CCCCC1` .
Reply: 82

Task item: Give a short answer stating reported inhibition for `C=CC(=O)Nc1cc2c(Nc3ccc(F)c(Cl)c3)c(C#N)cnc2cc1OCC` .
Reply: 33

Task item: Give a short answer stating reported inhibition for `CCOc1cc2ncc(C#N)c(Nc3ccc(OCc4ccccn4)c(Cl)c3)c2cc1NC(=O)CCN1CCOCC1` .
Reply: 39

Task item: Give a short answer stating reported inhibition for `CN(C)CCC(=O)N(C)c1ccc2ncnc(Nc3cccc(Br)c3)c2c1` .
Reply: 10

Task item: Give a short answer stating reported inhibition for `CCOc1cc2ncc(C#N)c(Nc3ccc(F)c(Cl)c3)c2cc1NC(=O)CCN(C)C` .
Reply: 67

Task item: Give a short answer stating reported inhibition for `O=C(CCN1CCOCC1)Nc1ccc2ncnc(Nc3cccc(Br)c3)c2c1` .
Reply: 91

Task item: Give a short answer stating reported inhibition for `CCOc1cc2ncc(C#N)c(Nc3ccc(F)c(Cl)c3)c2cc1NC(=O)CCN1CCOCC1` .
Reply: 48

Task item: Give a short answer stating reported inhibition for `O=C(CCN1CCCCC1)Nc1ccc2ncnc(Nc3cccc(Br)c3)c2c1` .
Reply: 93
